Tested on: PC-12
Protocol: Neuroprotective activity against H2O2-induced oxidative damage in rat PC12 cells pretreated with H2O2 for 24 hrs followed by compound addition and measured after 24 hrs
Type: functional, cell-based
Quantity name: EC50 (µM)
Could you give me the number in µM? Just the number is fine.

Sample records with EC50:
>  <Chemical string>
COc1c(OC(=O)N(CC2CC2)c2ccccc2)cc2oc3cc4c(c(O)c3c(=O)c2c1CC=C(C)C)C=CC(C)(C)O4

>  <Target or test system>
PC-12

>  <EC50 (µM)>
29.2

$$$$
>  <Chemical string>
COc1c(OC(=O)N(C)c2ccccc2)cc2oc3cc4c(c(O)c3c(=O)c2c1CC=C(C)C)C=CC(C)(C)O4

>  <Target or test system>
PC-12

>  <EC50 (µM)>
19.3

$$$$
>  <Chemical string>
COc1c(OC(=O)N(CC2CC2)c2cccc(Cl)c2)cc2oc3cc4c(c(O)c3c(=O)c2c1CC=C(C)C)C=CC(C)(C)O4

>  <Target or test system>
PC-12

>  <EC50 (µM)>
26.2

$$$$

[Q] State the recorded EC50 for this entry: COc1c(OC(=O)N(C)c2ccc(F)cc2)cc2oc3cc4c(c(O)c3c(=O)c2c1CC=C(C)C)C=CC(C)(C)O4
[A] 28.8

[Q] Moving on to the next compound: COc1c(OC(=O)N(CC2CC2)c2cccc(F)c2)cc2oc3cc4c(c(O)c3c(=O)c2c1CC=C(C)C)C=CC(C)(C)O4
[A] 24.8
